Origin of the recorded values: ChEMBL document CHEMBL1151737

# System: MT4
# assay-summary: Cytotoxicity against human MT4 cells after 4 days by XTT assay
# Format: cell-based
# condition-label: mt4, 96 h
parameter-measured: CC50

Cc1c(CC#N)c(=O)oc2c3c(ccc12)OC(C)(C)[C@H](OC(=O)[C@@]12CC[C@](C)(C(=O)O1)C2(C)C)[C@@H]3OC(=O)[C@@]12CC[C@](C)(C(=O)O1)C2(C)C    > 100 µM

----------
# Test system: MT2
# assay-summary: Cytotoxicity against human MT2 cells after 4 days by XTT assay
# Format: cell-based
# condition-label: mt2, 96 h
parameter-measured: CC50 (µM)

Cc1c(CC#N)c(=O)oc2c3c(ccc12)OC(C)(C)[C@H](OC(=O)[C@@]12CC[C@](C)(C(=O)O1)C2(C)C)[C@@H]3OC(=O)[C@@]12CC[C@](C)(C(=O)O1)C2(C)C    40.8

----------
# Tested on: H9
# assay-summary: Cytotoxicity against human H9 cells
# Format: cell-based
parameter-measured: IC50 (µM)

Cc1cc(=O)oc2c3c(ccc12)OC(C)(C)[C@H](OC(=O)[C@@]12CC[C@](C)(C(=O)O1)C2(C)C)[C@@H]3OC(=O)[C@@]12CC[C@](C)(C(=O)O1)C2(C)C    23.6

----------
# assay-summary: Half life in Sprague-Dawley rat at 2 mg/kg, iv
# Type: ADME, organism-based
# Design: dose 2 mg/kg, route intravenous
# condition-label: in vivo
parameter-measured: half-life (h)

Cc1c(CC#N)c(=O)oc2c3c(ccc12)OC(C)(C)[C@H](OC(=O)[C@@]12CC[C@](C)(C(=O)O1)C2(C)C)[C@@H]3OC(=O)[C@@]12CC[C@](C)(C(=O)O1)C2(C)C    1.62

----------
# assay-summary: Clearance in Sprague-Dawley rat at 2 mg/kg, iv
# Type: ADME, organism-based
# Parameters: dose 2 mg/kg, route intravenous
# condition-label: in vivo
parameter-measured: clearance (mL/min/kg)

Cc1c(CC#N)c(=O)oc2c3c(ccc12)OC(C)(C)[C@H](OC(=O)[C@@]12CC[C@](C)(C(=O)O1)C2(C)C)[C@@H]3OC(=O)[C@@]12CC[C@](C)(C(=O)O1)C2(C)C    10

----------
# assay-summary: Clearance in Sprague-Dawley rat at 20 mg/kg, intragastric gavage
# Assay type: ADME, organism-based
# Design: dose 20 mg/kg, route intragastric
# condition-label: in vivo, po
parameter-measured: CL/F (mL/min/kg)

Cc1c(CC#N)c(=O)oc2c3c(ccc12)OC(C)(C)[C@H](OC(=O)[C@@]12CC[C@](C)(C(=O)O1)C2(C)C)[C@@H]3OC(=O)[C@@]12CC[C@](C)(C(=O)O1)C2(C)C    58

----------
# System: PBMC
# assay-summary: Cytotoxicity against human PBMC after 4 days by XTT assay
# Format: cell-based
# condition-label: 96 h
parameter-measured: CC50

Cc1c(CC#N)c(=O)oc2c3c(ccc12)OC(C)(C)[C@H](OC(=O)[C@@]12CC[C@](C)(C(=O)O1)C2(C)C)[C@@H]3OC(=O)[C@@]12CC[C@](C)(C(=O)O1)C2(C)C    > 150 µM

----------
# assay-summary: Volume of distribution in Sprague-Dawley rat at 2 mg/kg, iv
# Type: ADME, organism-based
# Parameters: dose 2 mg/kg, route intravenous
# condition-label: in vivo
parameter-measured: Vd (L/kg)

Cc1c(CC#N)c(=O)oc2c3c(ccc12)OC(C)(C)[C@H](OC(=O)[C@@]12CC[C@](C)(C(=O)O1)C2(C)C)[C@@H]3OC(=O)[C@@]12CC[C@](C)(C(=O)O1)C2(C)C    2.34
